Attribute: pIC50
Tested on: A431 cells
Assay: MTT cell viability assay, A431
Assay type: cell-based
Settings: Homo sapiens, A-431, A431, 48 h treatment
Just so you know, pIC50 here is -log10 of the concentration in molar units; reply with that number alone.

COc1cc(/C=C/c2ccc(SC)cc2)cc(OC)c1 ... 4.34

Let's switch to this compound now.
Which value of pIC50 has been reported for COc1cccc(/C=C/c2ccc(SC)cc2)c1 [3-Methoxy-4′-methylthio-trans-stilbene] in the records?
3.85

###

System: A431 cells
Assay: MTT cell viability assay, A431
Format: cell-based
Settings: Homo sapiens, A-431, A431, 48 h treatment
measure_name: IC50 (µM)
Report as a plain number; the unit µM is understood.

# count of solved cases: 3
COc1cc(/C=C/c2ccc(SC)cc2)cc(OC)c1OC [3,4,5-MTS] ... 19.3
COc1cc(OC)c(OC)cc1/C=C/c1ccc(SC)cc1 [2,4,5-MTS] ... 22.6
COc1ccc(OC)c(/C=C/c2ccc(SC)cc2)c1 ... 47.1

Consider the compound `COc1cccc(/C=C/c2ccc(SC)cc2)c1OC` and give its measured IC50.
157

Input Oc1ccc(/C=C/c2cc(O)cc(O)c2)cc1 [Resveratrol, trans-3,4′,5-trihydroxystilbene]
49.4

What about this compound? COc1ccccc1/C=C/c1ccc(SC)cc1 [2-Methoxy-4′-methylthio-trans-stilbene]
241
